Origin of measurements: ChEMBL document CHEMBL2021811

- SYSTEM: Serine/threonine-protein kinase B-raf (Homo sapiens, UniProt P15056, V600E)
- Sequence (P15056 2-766 V600E limits assumed): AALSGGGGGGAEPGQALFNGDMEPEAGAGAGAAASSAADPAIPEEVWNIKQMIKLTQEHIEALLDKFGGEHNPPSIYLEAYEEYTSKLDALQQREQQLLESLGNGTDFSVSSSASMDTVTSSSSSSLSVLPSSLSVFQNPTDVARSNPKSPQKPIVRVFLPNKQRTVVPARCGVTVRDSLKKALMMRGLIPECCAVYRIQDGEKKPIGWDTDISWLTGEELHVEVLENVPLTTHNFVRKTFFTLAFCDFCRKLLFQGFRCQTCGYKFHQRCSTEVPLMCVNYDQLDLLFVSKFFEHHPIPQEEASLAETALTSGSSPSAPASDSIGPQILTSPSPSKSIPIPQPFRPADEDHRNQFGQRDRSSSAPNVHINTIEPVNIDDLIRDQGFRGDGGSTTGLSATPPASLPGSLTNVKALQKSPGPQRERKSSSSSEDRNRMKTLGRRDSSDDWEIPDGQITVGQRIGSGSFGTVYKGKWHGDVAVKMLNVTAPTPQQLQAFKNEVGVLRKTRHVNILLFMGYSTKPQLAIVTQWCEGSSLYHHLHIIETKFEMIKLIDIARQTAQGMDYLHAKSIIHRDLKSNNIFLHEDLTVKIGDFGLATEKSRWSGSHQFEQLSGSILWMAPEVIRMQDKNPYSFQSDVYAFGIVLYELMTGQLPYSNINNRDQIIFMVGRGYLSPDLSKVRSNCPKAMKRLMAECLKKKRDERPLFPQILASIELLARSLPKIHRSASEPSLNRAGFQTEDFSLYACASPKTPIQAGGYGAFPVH
- PROTOCOL_TEXT: Inhibition of full-length B-Raf V600E mutant in human MALME-3M cells assessed as reduction in basal ERK1/2 phosphorylation incubated for 1 hr
- Format: cell-based
pIC50: −log10 of the molar value.
OBSERVABLE: pIC50

{"SMILES_DATA": "CCCS(=O)(=O)Nc1ccc(F)c(-c2cc3cnc(NC)nc3n(C)c2=O)c1F", "LIMIT_SIGN": "=", "NUMERIC_READOUT": 7.35}
{"SMILES_DATA": "CCCS(=O)(=O)Nc1ccc(F)c(-c2ccc3nc(N)ncc3c2)c1F", "LIMIT_SIGN": "=", "NUMERIC_READOUT": 6.17}
{"SMILES_DATA": "CCCS(=O)(=O)Nc1ccc(F)c(-c2cc3cnccc3cn2)c1F", "LIMIT_SIGN": "=", "NUMERIC_READOUT": 6.15}
{"SMILES_DATA": "CCCS(=O)(=O)Nc1ccc(F)c(-c2cc3cnc(Nc4ccccc4)nc3n(C)c2=O)c1F", "LIMIT_SIGN": "=", "NUMERIC_READOUT": 8.30}
{"SMILES_DATA": "CCCS(=O)(=O)Nc1ccc(F)c(-c2cc3cnc(Nc4cccnc4)nc3n(C)c2=O)c1F", "LIMIT_SIGN": "=", "NUMERIC_READOUT": 8.52}
{"SMILES_DATA": "CCCS(=O)(=O)Nc1ccc(F)c(-c2cc3cnc(NC4CCOCC4)nc3n(C)c2=O)c1F", "LIMIT_SIGN": "=", "NUMERIC_READOUT": 7.14}
{"SMILES_DATA": "CCCS(=O)(=O)Nc1ccc(F)c(-c2cc3cncc(Br)c3cn2)c1F", "LIMIT_SIGN": "=", "NUMERIC_READOUT": 6.33}
{"SMILES_DATA": "CCCS(=O)(=O)Nc1ccc(F)c(-c2cc3cnc(Nc4cnn(C)c4)nc3n(C)c2=O)c1F", "LIMIT_SIGN": "=", "NUMERIC_READOUT": 9.00}
{"SMILES_DATA": "CCCS(=O)(=O)Nc1ccc(F)c(-c2cc3cnc(NCC4CC4)nc3n(C)c2=O)c1F", "LIMIT_SIGN": "=", "NUMERIC_READOUT": 7.57}
{"SMILES_DATA": "CCCS(=O)(=O)Nc1ccc(C)c(-c2ccc3nc(N)ncc3c2)c1", "LIMIT_SIGN": "<", "NUMERIC_READOUT": 5.00}

* * *

- PROTOCOL_TEXT: Permeability across human Caco2 cells
- Type: ADME, cell-based
- REPORTED_CONDITIONS: Caco-2, read-out: permeability
Papp overview
OBSERVABLE: Papp

{"SMILES_DATA": "CCCS(=O)(=O)Nc1ccc(F)c(-c2cc3cnc(NCCCO)nc3n(C)c2=O)c1F", "RESULT": "> 8 ×10⁻⁶ cm/s"}
{"SMILES_DATA": "CCCS(=O)(=O)Nc1ccc(F)c(-c2cc3cnc(NCCO)nc3n(C)c2=O)c1F", "RESULT": "> 8 ×10⁻⁶ cm/s"}
{"SMILES_DATA": "CCCS(=O)(=O)Nc1ccc(F)c(-c2cc3cnc(NCC4CC4)nc3n(C)c2=O)c1F", "RESULT": "> 8 ×10⁻⁶ cm/s"}

* * *

- PROTOCOL_TEXT: AUC in mouse at 30 mg/kg, po
- Type: ADME, organism-based
- Parameters: dose 30 mg/kg, route oral
- REPORTED_CONDITIONS: plasma
Recorded measurements of AUC, one per entry

{"SMILES_DATA": "CCCS(=O)(=O)Nc1ccc(F)c(-c2cc3cnc(NCCO)nc3n(C)c2=O)c1F", "AUC": "1 µM·h"}
{"SMILES_DATA": "CCCS(=O)(=O)Nc1ccc(F)c(-c2cc3cnc(NCCCO)nc3n(C)c2=O)c1F", "AUC": "20 µM·h"}
{"SMILES_DATA": "CCCS(=O)(=O)Nc1ccc(F)c(-c2cc3cnc(NCC4CC4)nc3n(C)c2=O)c1F", "AUC": "133 µM·h"}

* * *

Measured clearance, listed per entry.
- PROTOCOL_TEXT: Clearance in mouse at 2.5 mg/kg, iv
- Format: ADME, organism-based
- Set-up: dose 2.5 mg/kg, route intravenous
- REPORTED_CONDITIONS: in vivo

{"SMILES_DATA": "CCCS(=O)(=O)Nc1ccc(F)c(-c2cc3cnc(NCC4CC4)nc3n(C)c2=O)c1F", "clearance [mL/min/kg]": 3}
{"SMILES_DATA": "CCCS(=O)(=O)Nc1ccc(F)c(-c2cc3cnc(NCCO)nc3n(C)c2=O)c1F", "clearance [mL/min/kg]": 74}

* * *

Reported bioavailability values follow for various compounds
- PROTOCOL_TEXT: Oral bioavailability in mouse at 30 mg/kg
- Assay type: ADME, organism-based
- REPORTED_CONDITIONS: in vivo

{"SMILES_DATA": "CCCS(=O)(=O)Nc1ccc(F)c(-c2cc3cnc(NCCO)nc3n(C)c2=O)c1F", "UNITS_LABEL": "%", "bioavailability": 18}
{"SMILES_DATA": "CCCS(=O)(=O)Nc1ccc(F)c(-c2cc3cnc(NCC4CC4)nc3n(C)c2=O)c1F", "UNITS_LABEL": "%", "bioavailability": 33}

* * *

// values below are reported pIC50
- SYSTEM: Serine/threonine-protein kinase B-raf (Homo sapiens, UniProt P15056, V600E)
- PROTOCOL_TEXT: Inhibition of full-length B-Raf V600E mutant assessed as reduction in incorporation of radiolabeled phosphate from [gamma-33P]ATP into FSBA-modified wild-type MEK.
pIC50: −log10 of the molar value.
OBSERVABLE: pIC50

{"SMILES_DATA": "CCCS(=O)(=O)Nc1ccc(F)c(-c2cc3ccncc3[nH]2)c1F", "OBSERVABLE": "pIC50", "LIMIT_SIGN": "<", "NUMERIC_READOUT": 5.00}
{"SMILES_DATA": "CCCS(=O)(=O)Nc1ccc(F)c(-c2cc3cnccc3c(=O)n2C)c1F", "OBSERVABLE": "pIC50", "LIMIT_SIGN": "=", "NUMERIC_READOUT": 7.15}
{"SMILES_DATA": "CCCS(=O)(=O)Nc1ccc(F)c(-c2cc3cnc(NC4CCOCC4)nc3n(C)c2=O)c1F", "OBSERVABLE": "pIC50", "LIMIT_SIGN": "=", "NUMERIC_READOUT": 7.82}

* * *

- SYSTEM: Serine/threonine-protein kinase B-raf (Homo sapiens, UniProt P15056, V600E)
- PROTOCOL_TEXT: Inhibition of full-length B-Raf V600E mutant assessed as reduction in incorporation of radiolabeled phosphate from [gamma-33P]ATP into FSBA-modified wild-type MEK.
A collection of molecules and their measured IC50

{"SMILES_DATA": "CCCS(=O)(=O)Nc1ccc(F)c(-c2cc3cncc(Br)c3cn2)c1F", "IC50": "72 nM"}
{"SMILES_DATA": "CCCS(=O)(=O)Nc1ccc(F)c(-c2cc3cnccc3cn2)c1F", "IC50": "241 nM"}
{"SMILES_DATA": "CCCS(=O)(=O)Nc1ccc(F)c(-c2ccc3ccncc3c2)c1F", "IC50": "340 nM"}
{"SMILES_DATA": "CCCS(=O)(=O)Nc1ccc(F)c(-c2ccc3nc(N)ncc3c2)c1F", "IC50": "140 nM"}
{"SMILES_DATA": "CCCS(=O)(=O)Nc1ccc(F)c(-c2ccc3cc(N)ncc3c2)c1F", "IC50": "549 nM"}
{"SMILES_DATA": "CCCS(=O)(=O)Nc1ccc(F)c(-c2cc3cnc(N)nc3n(C)c2=O)c1F", "IC50": "10 nM"}

* * *

- SYSTEM: Serine/threonine-protein kinase B-raf (Homo sapiens, UniProt P15056, V600E)
- PROTOCOL_TEXT: Inhibition of full-length B-Raf V600E mutant assessed as reduction in incorporation of radiolabeled phosphate from [gamma-33P]ATP into FSBA-modified wild-type MEK.
pIC50: −log10 of the molar value.
OBSERVABLE: pIC50

{"SMILES_DATA": "CCCS(=O)(=O)Nc1ccc(F)c(-c2cc3cnc(Nc4cccnc4)nc3n(C)c2=O)c1F", "LIMIT_SIGN": "=", "NUMERIC_READOUT": 9.30}
{"SMILES_DATA": "CCCS(=O)(=O)Nc1ccc(F)c(-c2cc3cnc(NC)nc3n(C)c2=O)c1F", "LIMIT_SIGN": "=", "NUMERIC_READOUT": 8.05}
{"SMILES_DATA": "CCCS(=O)(=O)Nc1ccc(F)c(-c2cc3cnccc3n(CCc3ccccc3)c2=O)c1F", "LIMIT_SIGN": "=", "NUMERIC_READOUT": 7.89}
{"SMILES_DATA": "CCCS(=O)(=O)Nc1ccc(F)c(-c2cc3cnc(NCCO)nc3n(C)c2=O)c1F", "LIMIT_SIGN": "=", "NUMERIC_READOUT": 8.22}
{"SMILES_DATA": "CCCS(=O)(=O)Nc1ccc(F)c(-c2cc3cnc(NCC4CC4)nc3n(C)c2=O)c1F", "LIMIT_SIGN": "=", "NUMERIC_READOUT": 8.52}
{"SMILES_DATA": "CCCS(=O)(=O)Nc1ccc(F)c(-c2cc3cnc(Nc4cnn(C)c4)nc3n(C)c2=O)c1F", "LIMIT_SIGN": "=", "NUMERIC_READOUT": 9.40}
{"SMILES_DATA": "CCCS(=O)(=O)Nc1ccc(C)c(-c2ccc3nc(N)ncc3c2)c1", "LIMIT_SIGN": "=", "NUMERIC_READOUT": 6.89}
{"SMILES_DATA": "CCCS(=O)(=O)Nc1ccc(F)c(-c2ccc3nc(N)ncc3c2)c1", "LIMIT_SIGN": "<", "NUMERIC_READOUT": 5.00}
{"SMILES_DATA": "CCCS(=O)(=O)Nc1ccc(F)c(-c2cc3cnc(Nc4ccccc4)nc3n(C)c2=O)c1F", "LIMIT_SIGN": "=", "NUMERIC_READOUT": 9.30}
{"SMILES_DATA": "CCCS(=O)(=O)Nc1ccc(F)c(-c2ccc3ccncc3n2)c1F", "LIMIT_SIGN": "=", "NUMERIC_READOUT": 5.44}
